- Tested on: MS2 coat protein
- MEASUREMENT DESCRIPTION: apparent KD of MS2 coat protein; designed switch direction (-1 OFF switch, 1 ON switch): 1; higher = weaker reporter binding
- SETTINGS: input ligand: microRNA oligo, concentration not stated
In this section, each of the sequences is paired with its reported apparent KD of MS2 coat protein.
Hi! Could you send only the number? It should be in nM, unit omitted.

Response field apparent KD of MS2 coat protein (MS2 coat protein) for item UUAAUUAAUUAAUUAUACAUGAGGAUCACCCAUGUAAGUGAUCAGGAUAUCAGCUCGAUUAGAGCUGAGAAGGGAUACAUGUAA [SSNG3/13-A2] (Eterna round: R96, puzzle: Same State NG 3) : 164

Response field apparent KD of MS2 coat protein (MS2 coat protein) for item GUUAUUUAUGCAGGAUAUGAUUAACAUGAGGAUCACCCAUGUGGUGUUGUGAGUAAGGAGAGUGAUCAGAAGGGCAUUUUUUUU [JMF's solution 77] (Eterna round: R96, puzzle: Same State NG 2) : 298

Response field apparent KD of MS2 coat protein (MS2 coat protein) for item UUAACAUGAGGAUCACCCAUGUAUACGGAGUUUGCAAUUUGACAGGAUAUUGAAGAUCUAUAUAGCAAGAAGGGUCGUUAGUCU [JR_SSNG3_Sub006] (Eterna round: R96, puzzle: Same State NG 3) : 32.6

Response field apparent KD of MS2 coat protein (MS2 coat protein) for item GAGCCAGUCCGAGGAUAUUCAUAUAAAUUAAAUACAUGAGGAUCACCCAUGUAGGCGGAGCCUUGGGAGAAGGCGGACUGGCUC [Xeonanisa>>5] (Eterna round: R96, puzzle: Same State NG 2) : 35.9

Response field apparent KD of MS2 coat protein (MS2 coat protein) for item ACAUGAGAGUGAGGAUAUGGUGUACCUACAUGUGACAUGAGGAUCACCCAUGUGGUAAGUAUGACUCAGAAGGCACAGAUAUGU [Equivalance 77 - Jieux - Same State NG 2] (Eterna round: R96, puzzle: Same State NG 2) : 59.4

Response field apparent KD of MS2 coat protein (MS2 coat protein) for item GGUGCCAAUAAAGCCUACAUGAGGAUCACCCAUGUAUGUAGGCAGGAUAUCGUUUGCUUUGCAAACGAGAAGGGCCUAGGCACC [JL SSNG3 1.21] (Eterna round: R96, puzzle: Same State NG 3) : 24.3

Response field apparent KD of MS2 coat protein (MS2 coat protein) for item GUGGUCAGACAUGAGGAUCACCCAUGUGGAAUAAAUAACGGACAGGAUAUAGAAUAUAGGAUAUACUAGAAGGGUUGAUUGGUG (Eterna round: R96, puzzle: Same State NG 3) : 45.1

Response field apparent KD of MS2 coat protein (MS2 coat protein) for item CCGCAUUCAGCAGGAUAUCUCAACCGGAAGAUGAGAGAAGGGUUGAUUACAUGAGGAUCACCCAUGUCCAAGCAUGCGAGAGCC [Eternabot solution 23] (Eterna round: R96, puzzle: Same State NG 1) : 754

----------
- Test system: MS2 coat protein
- MEASUREMENT DESCRIPTION: apparent KD of MS2 coat protein; designed switch direction (-1 OFF switch, 1 ON switch): -1; higher = weaker reporter binding
- SETTINGS: Eterna round: R95; input ligand: FMN 200 uM
Class (required): determined from apparent KD of MS2 coat protein; valid ranges are 0 = under 30 nM, 1 = from 30 nM up to 100 nM, 2 = 100 nM and over

Worked cases, answers included:
{"CHAIN": "UAAUAUAGUGUGAGGAUAUGCUGGUCCUUGGAUCAGCAGAAGGCACAUGAGGAUCACCCAUGUAGUUUAUUUUA [Mat - Exclusion 4 - JL Mod - D2] (puzzle: Brourd's mod of Exclusion 4)", "LABEL CLASS": 2}
{"CHAIN": "UUUUUGUCAGGAUAUGCAUGUUUUUUUUUUUUUUUUUUCAUGCAGAAGGGACAUGAGGAUCACCCAUGUAGUUU [Ex4 - 3 - 10] (puzzle: Exclusion 4)", "LABEL CLASS": 1}
{"CHAIN": "GAAAAGGUAGGAUAUACGAAAAAAAAGGGUAGAAAAAAAAGACAUGAGGAUCACCCAUGUAGAAGGACCAAAAG [salish99_ex2_r3_061] (puzzle: Exclusion 2)", "LABEL CLASS": 1}
{"CHAIN": "GACCCUAGGGUCAGAUGCACAAGCUUUUUGCUCGUUUUAACAUGAGGAUCACCCAUGUCUAGUGGAUCUGAUCGGGC [Erorente] (puzzle: Sensor v3, turn-off variant 2)", "LABEL CLASS": 0}
{"CHAIN": "GCCAGUGCAGGAUAUCUAUAACCCUACAUGAGGAUCACCCAUGUCCAGCGAAAGCUGGAGGGAGAAGGGCACUGGC [Fiskers Ex 5 - 27] (puzzle: Exclusion 5)", "LABEL CLASS": 0}
{"CHAIN": "UAGGUGUGAGGAUAUGGUAAAGAUAAGAUGAUAAAAGAACUCCAGAAGGCACAUGAGGAUCACCCAUGUAGAUG [Mat - Exclusion 4 - Mod of JL - D34] (puzzle: Exclusion 4)", "LABEL CLASS": 1}
{"CHAIN": "CUGAGGUAGCGGUCCUAUGACAUGAGGAUCACCCAUGUACCUUGCUAUAAGCUUUUUGCUCGUCUUAUGAUUCUCGG [JL Atriat mod 7] (puzzle: Sensor v3, turn-off variant 1)", "LABEL CLASS": 2}
{"CHAIN": "GGAUCGAGUGUGAGGAUAUGCAGGUCCUUGGAUCUGCAGAAGGCACAUGAGGAUCACCCAUGUGGAGACGGUCC [Mat - Exclusion 4 - JL Mod - D75] (puzzle: Brourd's mod of Exclusion 4)", "LABEL CLASS": 2}
{"CHAIN": "GCAGGCGACUAGGCUCGUCUUAUUUUGAGAAGAUUGAAAACAUGAGGAUCACCCAUGUGUGUGGGAGAGUUGGAGUG [JR_SV3TOV2_Sub012] (puzzle: Sensor v3, turn-off variant 2)", "LABEL CLASS": 2}

Turning now to a further record.
Into which bin does this sequence go? CAUGGAACGUAGGAUAUCUCGCGGCUAGGCUGCAGAGAAGGACGCACAUGAGGAUCACCCAUGUGUGAUCCAAA [Tibiataus] (puzzle: Exclusion 6)
0

----------
- Test system: MS2 coat protein
- MEASUREMENT DESCRIPTION: apparent KD of MS2 coat protein; higher = weaker reporter binding
- SETTINGS: Eterna round: R107; input ligand: none
RECORDED ENDPOINT: apparent KD of MS2 coat protein (nM)
Hi! Could you send only the number? It should be in nM, unit omitted.

Example sequences with recorded apparent KD of MS2 coat protein:
{"CHAIN": "AUGCAUAGCGGAAGGAGCGCAAUAGAAUGACAUGAGGAUCACCCAUGUGUGUGAUGUGGAUUGCAGGUAGGUCGCCGAGUGGUAU [Exclusion - Arginine B (Freestyle 3)]", "ASSAY RESULT": 45.1}
{"CHAIN": "UGUAUGUGAUUUGAUACCAGACCAGCUGGUGGUACUUGAGGAUCACCCAGGUAGGUUUGGGUCCCUUGGCAGCAAAUCGCAUACU [SS Theo B #24 Ms12]", "ASSAY RESULT": 512}
{"CHAIN": "UUGUUGUUUGGAAGGAGCGUGGAUGAGUUAGAACAUGAGGAUCACCCAUGUUGGAUGAUACCGCAGGUAGGUCGCCGGGUGGUGG [11.aA]", "ASSAY RESULT": 50.7}
{"CHAIN": "ACAUGAGGAUCACCCAUGUGAAGGCACGAUACCAGCUGAUCCCGUGGCCCUUGGCAGCGUCACGUUUGGUCCCGCGGAUGAGACG [crcmullin]", "ASSAY RESULT": 14.2}
{"CHAIN": "UUUUUUUUUUACAUGAGGAUCACCCAUGUUCGAGGACCGGUACGGCCGCCACUCGUUUUUGUUGUGGUAGGGUUAGGGUUAGGGU [Turkey Lurky]", "ASSAY RESULT": 43.5}
{"CHAIN": "UUUUUCAUAGGUUAUAGUUAAGAAACUGAAGGAGCGUGGUAAUACACAGGUAGGUCGCAGAUUUUACAUGAGGAUCACCCAUGUU [JR_SSArginiA_Sub009]", "ASSAY RESULT": 34.9}
{"CHAIN": "GUUGGACUUUCGGCCGCCACUGAGAGAGUCGUGUGAACAUGAGGAUCACCCAUGUAAUAUAUAUACAGGACCGGGAGGGUUGUAA [4.N]", "ASSAY RESULT": 11.3}
{"CHAIN": "GGAUAGGACAGAAGGAGCGACAUGAGGAUCACCCAUGUCUACUACGUCGAAAGACGCUCAUGUCAGGUAGGUCGCUGUCCUAUCG [#28 Exclusion - Arginine B]", "ASSAY RESULT": 241}
{"CHAIN": "CCUAUGCAGUCGGCCGCCACUGAACAUGAGGAUCACCCAUGUAACGGAAACGAAGAUCCUGAAAUCAGGACCGGGACUGUAUAGG [Ex Tryptophan B 3]", "ASSAY RESULT": 154}
{"CHAIN": "GGAUAGGACACGGCCGCCACUAUCUAGGAUACUAGCAACAUUUGGGUACUUGAGGAUCACCCAAGUAGGACCGGGUGUCCUAUCG", "ASSAY RESULT": 170}

Entry AUAUAUGACAGAAGGAGCGCCAUGAACACACAUGAGGAUCACCCAUGUUUUUUUUGUGUUUGGCAGGUAGGUCGCUGACAUGAAA [Same State Arginine B 3] ; apparent KD of MS2 coat protein = 8.71

Entry UUCGCGGCCGCGCUGCACAUGUGUGUGUUACGAGGACCGGUACGGCCGCCACUCGCGAUCGCACAUGAGGAUCACCCAUGUGGGA [Exclusion Tryp A GF17] ; apparent KD of MS2 coat protein = 25.7
